IC50 (neutralization, TZM-bl pseudovirus assay): recorded values
Biological target: HIV-1 Env of isolate DU156 (clade C pseudovirus) (HIV-1)
Experiment: cell-based or functional assay
reported-metric: IC50 (neutralization, TZM-bl pseudovirus assay)

1469_M23 (PG16) (TCN-118) (antibody, V domains shown) VH: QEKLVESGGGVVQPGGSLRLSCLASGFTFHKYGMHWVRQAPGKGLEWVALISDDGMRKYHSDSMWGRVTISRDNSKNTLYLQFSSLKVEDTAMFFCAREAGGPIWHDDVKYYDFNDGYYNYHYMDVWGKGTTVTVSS VL: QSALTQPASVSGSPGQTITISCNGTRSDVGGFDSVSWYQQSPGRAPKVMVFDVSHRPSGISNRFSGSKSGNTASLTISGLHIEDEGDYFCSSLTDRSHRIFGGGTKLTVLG	< 0.01 µg/mL
1456_A12 (PG16) (TCN-117) (antibody, V domains shown) VH: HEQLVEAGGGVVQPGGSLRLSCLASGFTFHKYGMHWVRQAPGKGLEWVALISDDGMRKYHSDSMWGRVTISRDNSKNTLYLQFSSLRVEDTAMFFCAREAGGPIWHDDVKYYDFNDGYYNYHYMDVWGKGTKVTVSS VL: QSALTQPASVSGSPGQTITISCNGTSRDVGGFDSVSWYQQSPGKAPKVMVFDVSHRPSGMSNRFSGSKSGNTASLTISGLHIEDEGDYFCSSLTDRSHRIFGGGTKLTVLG	< 0.01 µg/mL
1489_I13 (PG16) (TCN-120) (antibody, V domains shown) VH: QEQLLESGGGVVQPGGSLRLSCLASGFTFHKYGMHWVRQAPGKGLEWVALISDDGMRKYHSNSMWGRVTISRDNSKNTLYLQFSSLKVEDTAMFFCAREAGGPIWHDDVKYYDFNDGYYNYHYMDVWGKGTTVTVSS VL: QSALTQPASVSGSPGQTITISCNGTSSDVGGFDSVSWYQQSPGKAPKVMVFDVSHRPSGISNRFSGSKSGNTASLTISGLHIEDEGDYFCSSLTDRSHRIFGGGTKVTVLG	< 0.01 µg/mL
